# subjectOfTest: His tagged PTPN2 (TC45) protein (Homo sapiens)
# Construct: His; made in house
# testProtocol: Mobility Shift Assay (MSA) for PTPN2 inhibitors
# Type: biochemical
# measurementSetup: Table 3; thiochromanes (X = S) and chromane comparators (X = O)
compounds and their reported IC50
Provide the reading as a plain figure in nM.

With His tagged PTPN2 (TC45) protein (Homo sapiens) as the test system, N[C@@H]1CSc2cc(O)c(N3CC(=O)NS3(=O)=O)c(F)c2C1 [Compound 102] showed IC50 of 31

Further cases:
With His tagged PTPN2 (TC45) protein (Homo sapiens) as the test system, N[C@@H]1COc2cc(O)c(N3CC(=O)NS3(=O)=O)c(F)c2C1 [Compound C-2, reference compound] showed IC50 of 52

With His tagged PTPN2 (TC45) protein (Homo sapiens) as the test system, CC(C)CCN[C@@H]1CSc2cc(O)c(N3CC(=O)NS3(=O)=O)c(F)c2C1 [Compound 103] showed IC50 of 1

====

compounds and their reported IC50
# subjectOfTest: His tagged PTPN2 (TC45) protein (Homo sapiens)
# Construct: His; made in house
# testProtocol: Mobility Shift Assay (MSA) for PTPN2 inhibitors
# Type: biochemical
# measurementSetup: enzyme 0.5 nM, substrate 2 μM, 10 minutes preincubation at room temperature

The measured IC50 associated with CC(CN[C@@H]1CSc2cc(O)c(N3CC(=O)NS3(=O)=O)c(F)c2C1)C1CC1 (stereo partly shown) [Compound 133] reads < 10 nM

The measured IC50 associated with O=C1CN(c2c(O)cc3c(c2F)C[C@H](NCCC2(CO)CCCC2)CS3)S(=O)(=O)N1 [Compound 105] reads < 10 nM

The measured IC50 associated with O=C1CN(c2c(O)cc3c(c2F)C[C@H](NCCC2CC(F)(F)C2)CS3)S(=O)(=O)N1 [Compound 117] reads < 10 nM

Further cases:
The measured IC50 associated with O=C1CN(c2c(O)cc3c(c2F)C[C@H](NCCCn2cccn2)CS3)S(=O)(=O)N1 [Compound 131] reads 10 to 100 nM

The measured IC50 associated with O=C1CN(c2c(O)cc3c(c2F)C[C@H](NCC2(F)CC2)CS3)S(=O)(=O)N1 [Compound 125] reads 10 to 100 nM

The measured IC50 associated with N[C@@H]1CSc2cc(O)c(N3CC(=O)NS3(=O)=O)c(F)c2C1 [Compound 102] reads 10 to 100 nM

The measured IC50 associated with O=C1CN(c2c(O)cc3c(c2F)C[C@H](NCC2CC(c4ccccc4)C2)CS3)S(=O)(=O)N1 (stereo partly shown) [Compound 135] reads < 10 nM

The measured IC50 associated with CC(C)=CCN[C@@H]1CSc2cc(O)c(N3CC(=O)NS3(=O)=O)c(F)c2C1 [Compound 122] reads 10 to 100 nM

The measured IC50 associated with O=C1CN(c2c(O)cc3c(c2F)C[C@H](NCCC2CCCC2)CS3)S(=O)(=O)N1 [Compound 120] reads < 10 nM

The measured IC50 associated with CCC(C)(C)CCN[C@@H]1CSc2cc(O)c(N3CC(=O)NS3(=O)=O)c(F)c2C1 [Compound 124] reads < 10 nM

====

# subjectOfTest: His tagged full-length PTPN1 protein (Homo sapiens, UniProt P18031)
# Sequence (P18031 1-435): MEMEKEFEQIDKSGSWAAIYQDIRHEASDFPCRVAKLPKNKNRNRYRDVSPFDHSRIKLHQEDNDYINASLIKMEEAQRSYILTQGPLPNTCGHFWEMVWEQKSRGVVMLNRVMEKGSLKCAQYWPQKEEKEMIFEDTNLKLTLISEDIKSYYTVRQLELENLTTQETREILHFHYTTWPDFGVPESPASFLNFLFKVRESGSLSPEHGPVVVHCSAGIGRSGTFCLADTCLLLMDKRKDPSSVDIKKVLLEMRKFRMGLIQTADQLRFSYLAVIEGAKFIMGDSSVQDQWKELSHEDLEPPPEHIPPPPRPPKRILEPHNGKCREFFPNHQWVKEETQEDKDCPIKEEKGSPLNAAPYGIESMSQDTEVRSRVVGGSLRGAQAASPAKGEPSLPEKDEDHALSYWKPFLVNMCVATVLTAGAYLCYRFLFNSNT
valueType: IC50

Known IC50 results, listed for orientation:
The measured IC50 associated with CC(C)C(C)CN[C@@H]1CSc2cc(O)c(N3CC(=O)NS3(=O)=O)c(F)c2C1 (stereo partly shown) reads < 10 nM

The measured IC50 associated with CC(C)CCN[C@@H]1CSc2cc(O)c(N3CC(=O)NS3(=O)=O)c(F)c2C1 reads < 10 nM

The measured IC50 associated with O=C1CN(c2c(O)cc3c(c2F)C[C@H](NCCC2CCOC2)CS3)S(=O)(=O)N1 (stereo partly shown) reads 10 to 100 nM

Further cases:
The measured IC50 associated with O=C1CN(c2c(O)cc3c(c2F)C[C@H](NCCC2CCCC2)CS3)S(=O)(=O)N1 reads < 10 nM

====

These molecules were tested on His tagged full-length PTPN1 protein (Homo sapiens, UniProt P18031); IC50 is the recorded read-out.

The measured IC50 associated with O=C1CN(c2c(O)cc3c(c2F)C[C@H](NCC2CCOCC2)CS3)S(=O)(=O)N1 [Compound 110] reads 10 to 100 nM

The measured IC50 associated with O=C1CN(c2c(O)cc3c(c2F)C[C@H](NCC2CC(c4ccccc4)C2)CS3)S(=O)(=O)N1 (stereo partly drawn) [Compound 135] reads 10 to 100 nM

Field: next molecule
The measured IC50 associated with CC1=C(CCN[C@@H]2CSc3cc(O)c(N4CC(=O)NS4(=O)=O)c(F)c3C2)C(C)(C)CCC1 [Compound 140] reads 10 to 100 nM

====

# subjectOfTest: His tagged PTPN2 (TC45) protein (Homo sapiens, UniProt P17706)
# Construct: His; made in house
# Sequence (P17706 1-387 isoform P17706-2): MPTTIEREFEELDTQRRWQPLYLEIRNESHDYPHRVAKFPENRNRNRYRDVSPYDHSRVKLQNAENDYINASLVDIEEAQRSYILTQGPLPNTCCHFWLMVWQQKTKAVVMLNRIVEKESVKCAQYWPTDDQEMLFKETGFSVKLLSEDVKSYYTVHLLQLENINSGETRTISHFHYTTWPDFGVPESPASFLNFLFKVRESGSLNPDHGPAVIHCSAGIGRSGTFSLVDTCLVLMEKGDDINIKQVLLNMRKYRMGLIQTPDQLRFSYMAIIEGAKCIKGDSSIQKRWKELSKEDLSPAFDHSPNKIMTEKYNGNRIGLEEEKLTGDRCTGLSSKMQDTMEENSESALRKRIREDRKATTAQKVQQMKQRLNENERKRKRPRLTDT
# testProtocol: Mobility Shift Assay (MSA) for PTPN2 inhibitors
# Format: biochemical
# measurementSetup: Table 3; PTPN2 MSA IC50 of chromane comparator over thiochromane
compounds and their reported Thiochromane x-fold>potency biochemical
# answer = number (no unit)

Known Thiochromane x-fold>potency biochemical results, listed for orientation:
With His tagged PTPN2 (TC45) protein (Homo sapiens, UniProt P17706) as the test system, O=C1CN(c2c(O)cc3c(c2F)C[C@H](NCC2CC(c4ccccc4)C2)CS3)S(=O)(=O)N1 (stereo partly shown) showed Thiochromane x-fold>potency biochemical of 1.9

With His tagged PTPN2 (TC45) protein (Homo sapiens, UniProt P17706) as the test system, N[C@@H]1CSc2cc(O)c(N3CC(=O)NS3(=O)=O)c(F)c2C1 showed Thiochromane x-fold>potency biochemical of 1.7

With His tagged PTPN2 (TC45) protein (Homo sapiens, UniProt P17706) as the test system, O=C1CN(c2c(O)cc3c(c2F)C[C@H](NCCC2CCOC2)CS3)S(=O)(=O)N1 (stereo partly shown) showed Thiochromane x-fold>potency biochemical of 6.0

Further cases:
With His tagged PTPN2 (TC45) protein (Homo sapiens, UniProt P17706) as the test system, O=C1CN(c2c(O)cc3c(c2F)C[C@H](NCCCC(F)F)CS3)S(=O)(=O)N1 showed Thiochromane x-fold>potency biochemical of 3.4

With His tagged PTPN2 (TC45) protein (Homo sapiens, UniProt P17706) as the test system, CC(C)(C)OC(=O)N1CCC(CN[C@@H]2CSc3cc(O)c(N4CC(=O)NS4(=O)=O)c(F)c3C2)CC1 showed Thiochromane x-fold>potency biochemical of 1.0

With His tagged PTPN2 (TC45) protein (Homo sapiens, UniProt P17706) as the test system, CC1=C(CCN[C@@H]2CSc3cc(O)c(N4CC(=O)NS4(=O)=O)c(F)c3C2)C(C)(C)CCC1 showed Thiochromane x-fold>potency biochemical of 1.5

With His tagged PTPN2 (TC45) protein (Homo sapiens, UniProt P17706) as the test system, O=C1CN(c2c(O)cc3c(c2F)C[C@H](NCC2(CF)CC2)CS3)S(=O)(=O)N1 showed Thiochromane x-fold>potency biochemical of 1.2

With His tagged PTPN2 (TC45) protein (Homo sapiens, UniProt P17706) as the test system, CC(C)CCN[C@@H]1CSc2cc(O)c(N3CC(=O)NS3(=O)=O)c(F)c2C1 showed Thiochromane x-fold>potency biochemical of 11.9

With His tagged PTPN2 (TC45) protein (Homo sapiens, UniProt P17706) as the test system, O=C1CN(c2c(O)cc3c(c2F)C[C@H](NCC2CCC(C(F)(F)F)CC2)CS3)S(=O)(=O)N1 (stereo partly shown) showed Thiochromane x-fold>potency biochemical of 5.4

With His tagged PTPN2 (TC45) protein (Homo sapiens, UniProt P17706) as the test system, O=C1CN(c2c(O)cc3c(c2F)C[C@H](NCC2C4CCCC42)CS3)S(=O)(=O)N1 (mixture of isomers) showed Thiochromane x-fold>potency biochemical of 2.0

With His tagged PTPN2 (TC45) protein (Homo sapiens, UniProt P17706) as the test system, O=C1CN(c2c(O)cc3c(c2F)C[C@H](NCCCc2ccccc2)CS3)S(=O)(=O)N1 showed Thiochromane x-fold>potency biochemical of 0.8

With His tagged PTPN2 (TC45) protein (Homo sapiens, UniProt P17706) as the test system, O=C1CN(c2c(O)cc3c(c2F)C[C@H](NCCCOCC(F)F)CS3)S(=O)(=O)N1 showed Thiochromane x-fold>potency biochemical of 1.1

With His tagged PTPN2 (TC45) protein (Homo sapiens, UniProt P17706) as the test system, O=C1CN(c2c(O)cc3c(c2F)C[C@H](NCCC2CCOCC2)CS3)S(=O)(=O)N1 showed Thiochromane x-fold>potency biochemical of 2.0
